The measured values listed here are drawn from patent US9353090B2.

Test: physchem
Details: pH 4.5, aqueous buffer, kinetic from dmso stock, Solubility (pH 4.5)
Entry flag: MET if solubility at 24 h reaches 90 µg/mL; NOT MET if it does not.

Incoming: Test whether the compound "CCO[C@@H]1CN(c2nc(-c3cccc(C)c3OCc3cc4c(c(OC)c3)CN(C3CCOCC3)CC4)cs2)CC[C@@H]1C(=O)O" records solubility at 24 h of 90 µg/mL or higher.
Outgoing: MET

Incoming: // repeat for "COC[C@H]1N(c2cccc(-c3cccc(C)c3OCc3cc(C)c4c(c3F)CCN(C3CCOCC3)C4)n2)C[C@@H]2C[C@@]21C(=O)O" and report
Outgoing: MET

Incoming: // repeat for Cc1cc(COc2c(C)cccc2-c2csc(N3CC[C@@]4(C(=O)O)C[C@H]4C3)n2)c(C)c2c1CN(C1CCOC1)CC2 (stereo partly shown) and report
Outgoing: NOT MET

Incoming: // repeat for "COC[C@H]1N(c2nc(-c3cccc(C)c3OCc3ccc4c(c3C)CCN(C3CCC3)C4)cs2)C[C@@H]2C[C@@]21C(=O)O" and report
Outgoing: NOT MET

Incoming: // repeat for "CCO[C@H]1CN(c2nccc(-c3cccc(C)c3OCc3cc4c(c(OC)c3)CN(C3CCOCC3)CC4)n2)CC[C@H]1C(=O)O" and report
Outgoing: MET

Incoming: // repeat for "CCO[C@H]1CN(c2cccc(-c3cc(C)ccc3OCc3cc4c(c(OC)c3)CN(C3CCOCC3)CC4)n2)CC[C@H]1C(=O)O" and report
Outgoing: MET

Incoming: // repeat for "CO[C@@H]1CN(c2cccc(-c3cc(C)ccc3OCc3ccc4c(c3)CCN(C3CCOCC3)C4)n2)CC[C@@H]1C(=O)O" and report
Outgoing: MET

Incoming: // repeat for "COC[C@H]1N(c2cccc(-c3cccc(C)c3OCc3ccc4c(c3C)CCN(C3CCOCC3)CC4)n2)C[C@@H]2C[C@@]21C(=O)O" and report
Outgoing: MET

Incoming: // repeat for Cc1ccc(OCc2cc(C)c3c(c2)CCN(CC2COCCO2)C3)c(-c2csc(N3CC[C@@]4(C(=O)O)C[C@H]4C3)n2)c1 (stereo partly shown) and report
Outgoing: NOT MET

Incoming: // repeat for "COc1cc(COc2ccc(C)cc2-c2csc(N3CC[C@@H](C(=O)O)[C@@H](OC)C3)n2)cc2c1CN(C1CCOCC1)CC2" and report
Outgoing: NOT MET

---

Test: physchem
Details: pH 2.2, aqueous buffer, kinetic from dmso stock, Solubility (pH 2.2)
Quantity: solubility at 24 h (µg/mL)
Give the value in µg/mL but do not write µg/mL after it.

Incoming: What measured solubility at 24 h goes with "COC[C@H]1N(c2cccc(-c3cccc(C)c3OCc3cc4c(c(OC)c3)CN(C3COC3)CC4)n2)C[C@@H]2C[C@@]21C(=O)O" ?
Outgoing: 110

Incoming: // repeat for "CCO[C@H]1CN(c2cccc(-c3cccc(Cl)c3OCc3cc(C)c4c(c3)CCN(C3CCOCC3)C4)n2)CC[C@H]1C(=O)O" and report
Outgoing: 151

Incoming: // repeat for "CO[C@@H]1CN(c2cccc(-c3cccc(Cl)c3OCc3cc(C)c4c(c3)CCN(C3CCOCC3)C4)n2)CC[C@@H]1C(=O)O" and report
Outgoing: 170

Incoming: // repeat for "CO[C@H]1CN(c2cccc(-c3cc(C)ccc3OCc3ccc4c(c3C)CCN(C3CCOCC3)CC4)n2)CC[C@H]1C(=O)O" and report
Outgoing: 110

Incoming: // repeat for "COc1cc(COc2c(C)cccc2-c2cccc(N3CC[C@H](C(=O)O)[C@H](OC)C3)n2)cc2c1CN(C1CCOCC1)CC2" and report
Outgoing: 129

Incoming: // repeat for "Cc1cccc(-c2cccc(N3CC[C@@]4(C(=O)O)C[C@H]4C3)n2)c1OCc1ccc2c(c1)CCN(C1CCOCC1)C2" and report
Outgoing: 140

---

Experiment: physchem
Settings: pH 4.5, aqueous buffer, kinetic from dmso stock, Solubility (pH 4.5)
Quantity: solubility at 24 h (µg/mL)
Give the value in µg/mL but do not write µg/mL after it.

Incoming: What measured solubility at 24 h goes with CO[C@@H]1CN(c2nc(-c3cccc(C)c3OCc3ccc4c(c3F)CCN(C3CCOCC3)CC4)cs2)CC[C@@H]1C(=O)O [Compound 266] ?
Outgoing: 63.1

Incoming: // repeat for COC[C@H]1N(c2cccc(-c3cccc(C)c3OCc3cc(C)c4c(c3C)CCN(C3CCOCC3)C4)n2)C[C@@H]2C[C@@]21C(=O)O [Compound 215] and report
Outgoing: 135

Incoming: // repeat for CO[C@H]1CN(c2nc(-c3cccc(C)c3OCc3cc(C)c4c(c3)CCN(CC3COCCO3)C4)cs2)CC[C@H]1C(=O)O (stereo partly drawn) [Compound 168] and report
Outgoing: 87

---

Experiment: Human liver microsome (HLM) metabolic stability assay
Type: in vitro ADME
Settings: human liver microsomes
Quantity: Metabolic stability (Qh %), % hepatic blood flow

Incoming: What measured Metabolic stability (Qh %), % hepatic blood flow goes with "COC[C@H]1N(c2cccc(-c3cccc(C(F)(F)F)c3OCc3cc(C)c4c(c3)CCN(C3COC3)C4)n2)C[C@@H]2C[C@@]21C(=O)O" ?
Outgoing: 30%

Incoming: // repeat for "CO[C@@H]1CN(c2nc(-c3cc(F)cc(C)c3OCc3ccc4c(c3C)CCN(C3CCOCC3)CC4)cs2)CC[C@@H]1C(=O)O" and report
Outgoing: <24%

Incoming: // repeat for "Cc1ccc(OCc2ccc3c(c2C)CCN(C2CCOCC2)C3)c(-c2csc(N3C[C@@H]4C[C@]4(C(=O)O)C3)n2)c1" and report
Outgoing: 26%

Incoming: // repeat for "CCO[C@@H]1CN(c2nccc(-c3cccc(C)c3OCc3cc4c(c(OC)c3)CN(C3CCOCC3)CC4)n2)CC[C@@H]1C(=O)O" and report
Outgoing: <24%

Incoming: // repeat for "Cc1cccc(-c2cccc(N3C[C@@H]4C[C@]4(C(=O)O)C3)n2)c1OCc1cc(C#N)c2c(c1)CCN(C1CCOCC1)C2" and report
Outgoing: <24%

Incoming: // repeat for "COC[C@@H]1N(c2cccc(-c3cccc(C)c3OCc3cc(C)c4c(c3)CCN(C3CCOCC3)C4)n2)C[C@H]2C[C@]21C(=O)O" and report
Outgoing: <24%

---

What solubility at 24 h was measured for each of the following?
Assay: physchem
Conditions: pH 4.5, aqueous buffer, kinetic from dmso stock, Solubility (pH 4.5)
Give the value in µg/mL but do not write µg/mL after it.

Incoming: What measured solubility at 24 h goes with "Cc1c(COc2ccccc2-c2cccc(N3CC[C@@]4(C(=O)O)C[C@H]4C3)n2)ccc2c1CCN([C@@H]1CCOC1)C2" ?
Outgoing: 110

Incoming: // repeat for COCC(C)N1CCc2c(ccc(COc3ccccc3-c3cccc(N4CC[C@@]5(C(=O)O)C[C@H]5C4)n3)c2C)C1 (stereo partly shown) and report
Outgoing: 73.7

Incoming: // repeat for "COCc1cc(COc2c(C)cccc2-c2cccc(N3C[C@@H]4C[C@]4(C(=O)O)[C@H]3COC)n2)cc2c1CN(C1CCOCC1)CC2" and report
Outgoing: 100

Incoming: // repeat for "Cc1c(COc2ccccc2-c2csc(N3CC[C@@]4(C(=O)O)C[C@H]4C3)n2)ccc2c1CCN(C1CCOCC1)C2" and report
Outgoing: 47

Incoming: // repeat for "COc1cc(COc2c(C)cccc2-c2csc(N3CC[C@@H](C(=O)O)[C@@H](OC)C3)n2)c(F)c2c1CN(C1CCOCC1)CC2" and report
Outgoing: 81.7

Incoming: // repeat for "CCO[C@H]1CN(c2cccc(-c3cccc(C)c3OCc3cc4c(c(OC)c3)CN(C3CCOCC3)CC4)n2)CC[C@H]1C(=O)O" and report
Outgoing: 124

Incoming: // repeat for "CCO[C@@H]1CN(c2nc(-c3cc(C)ccc3OCc3cc4c(c(OC)c3)CN(C3CCOCC3)CC4)cs2)CC[C@@H]1C(=O)O" and report
Outgoing: 116

Incoming: // repeat for "CO[C@H]1CN(c2cccc(-c3cc(C)ccc3OCc3ccc4c(c3C)CCN(C3CCOCC3)CC4)n2)CC[C@H]1C(=O)O" and report
Outgoing: 93

Incoming: // repeat for "CO[C@H]1CN(c2nc(-c3cccc(C)c3OCc3ccc4c(c3C)CCN(C3COC3)CC4)cs2)CC[C@H]1C(=O)O" and report
Outgoing: 72.7

Incoming: // repeat for "Cc1ccc(OCc2ccc3c(c2)CCN(C2CCOCC2)C3)c(-c2cccc(N3CC[C@@]4(C(=O)O)C[C@H]4C3)n2)c1" and report
Outgoing: 96

Incoming: // repeat for "COc1cc(COc2ccc(C)cc2-c2csc(N3CC[C@@H](C(=O)O)[C@@H](OC)C3)n2)c(F)c2c1CN(C1CCOCC1)CC2" and report
Outgoing: 66.6

Incoming: // repeat for "Cc1cccc(-c2csc(N3C[C@@H]4C[C@]4(C(=O)O)C3)n2)c1OCc1ccc2c(c1C)CCN(C1CCOCC1)C2" and report
Outgoing: 76

Incoming: // repeat for "Cc1cccc(-c2csc(N3C[C@@H]4C[C@]4(C(=O)O)C3)n2)c1OCc1cc(C#N)c2c(c1)CCN(C1COC1)C2" and report
Outgoing: 38
